Test system: HCC-2998 colon
Test Description: NCI tumour cell line growth inhibition, 48 h
Measurement Name: log10 TGI (log10 of the value in µM)
Log10 applied to TGI; unit prior to transform: µM.

Molecule: O=c1[nH]c(Nc2ccc(Br)c(C(F)(F)F)c2)nc2nc[nH]c12
System: HCC-2998 colon
log10 TGI: 1.61

Log: HCC-2998 colon, molecule CSc1ccc(C2=NN(C(C)=O)C(c3ccc(-c4cc(Cl)c(Cl)cc4Cl)o3)C2)cc1 (stereo unspecified) , log10 TGI = 1.47

Log: HCC-2998 colon, molecule "CC(=O)OCc1c(O)c2c([nH]c1=O)CCc1ccccc1-2" , log10 TGI = 2.29

Log: HCC-2998 colon, molecule "Fc1cc(C2=Nn3c(COc4ccccc4Cl)nnc3S/C2=C\c2ccc(Cl)cc2)c(Cl)cc1Cl" , log10 TGI = 1.21

Log: HCC-2998 colon, molecule "O=C1c2ccccc2-c2c3c(cc4ccnc1c24)OCO3" , log10 TGI = 1.78

----------
System: SNB-75 CNS
Test Description: NCI tumour cell line growth inhibition, 48 h; in the data active = GI50 below about 0.43 µM; inactive = the rest
Valid outcomes are listed here; reply with one: true (active), false (inactive)

Compound: Fc1cccc(COc2ccc(Nc3ncnc4onc(-c5ccccc5)c34)cc2)c1
System: SNB-75 CNS
Assigned Class: true

Compound: CC(=O)O.CN1[CH-]N(Cc2ccc(C#N)cc2)c2ccccc21.[Ag+]
System: SNB-75 CNS
Assigned Class: false

Compound: Cc1c(Cn2c(C)nc3c(C(=O)O)cc(N4CCOCC4)cc32)cccc1C(F)(F)F
System: SNB-75 CNS
Assigned Class: false

Compound: COc1cc(CCC[P+](c2ccccc2)(c2ccccc2)c2ccccc2)c(OC)c2c1OCO2
System: SNB-75 CNS
Assigned Class: false

Compound: COc1ccc2c(c1)CCC1C2CC[C@@]2(C)C1CC[C@@H]2NC(=O)Cc1ccc(O)c(O)c1 (some centres not stated)
System: SNB-75 CNS
Assigned Class: false

Compound: COc1cnc2c(c1)C(=O)c1c-2n(CCCN2CCCC2)c(=O)c2cc([N+](=O)[O-])ccc12
System: SNB-75 CNS
Assigned Class: true

Compound: CCN1CCN(CCNc2nccc(-c3c(-c4ccc(F)c(O)c4)nc4occn34)n2)S1(=O)=O
System: SNB-75 CNS
Assigned Class: false

Compound: COc1ccc(Nc2nc(NCCNc3ccnc4cc(Cl)ccc34)nc(N3CCOCC3)n2)cc1
System: SNB-75 CNS
Assigned Class: false

Lookup: Recorded call for "O=C1c2c(c(=O)[nH]c3ccccc23)[C@H](c2ccccc2)[C@@H]2CCCN12" ?
Found: false

Lookup: Recorded call for "CCCc1nn(C)c2c(=O)[nH]c(-c3cc(S(=O)(=O)N4CCN(C)CC4)ccc3OCC)nc12" ?
Found: false

Lookup: Recorded call for "COc1cc(-n2ccnc2-c2ccc3ccccc3c2)cc(OC)c1OC" ?
Found: true

Lookup: Recorded call for "Cc1ccc(CNc2ccc3nc(CCC4CCCCC4)[nH]c3c2)cc1" ?
Found: false

----------
Tested on: UO-31 renal
Test Description: NCI tumour cell line growth inhibition, 48 h
Measurement Name: TGI (µM)
# output: bare number, implied unit µM

Cpd Smiles: COC(=O)/C=C1/SC(=Nc2cccc(Cl)c2)N(CCc2c[nH]c3ccc(O)cc23)C1=O
Value Unit: µM
TGI: 2.88
//
Cpd Smiles: COC(=O)[C@H](Cc1ccccc1)NC(=O)c1ccc(CNC(=O)/C=C/c2ccc(OCc3ccccc3)cc2)cc1
Value Unit: µM
TGI: 29.5

Next compound, TGI to be filled in.
Log: UO-31 renal, compound "Cc1ccc(CNc2ccc3nc(CCC4CCCCC4)[nH]c3c2)cc1" , TGI = 3.3
